Data origin, for the record: patent US20230226096A1

# Test system: HEK293 cells
# Type: cell-based, human
# CONDITION NOTES: luminescence from secreted Gluc in supernatant 24 hours after transfection of HEK293 cells; circular RNA encoding Gluc with the named IRES (UTR truncated to 675 nt)
RESULT TYPE: Expression

Return reported Expression. Input molecule: Bovine picornavirus isolate TCH6 (nucleic acid) DNA: TTGGATCTGAGCAGGGGCCCCCTTTGGGTTGCTTTACAACTCAACTGGGGGTTAAAAAACGTCTAACCCGACACGCCAGAGGGATCTGGTTTCCTTTTATTTCTTTTACTCACCACTGGATGCAGATTGACGATAAACGTTGTTGTTTGTGACTATTGACTTGATCTGCTTCTACGGGTTTACTTTCACTGTTATACTTCTTGCTTTGTTTGGTGTTCACTGTACTTTGTCTCCTTCTACATTTCACA
1.21E+05
